test system: MDA-MB-231; assay: Growth inhibition of human MDA-MB-231 cells after 48 hrs by sulforhodamine B assay; type: functional; conditions: MDA-MB-231, 48 h
value_type: GI50

INSERT INTO measurements (smiles_text, value_type, recorded_value) VALUES
  ('COc1ccc2[nH]c(-c3ccccc3)c(/C=C(\C#N)S(=O)(=O)c3ccccc3)c2c1', 'GI50', '7.5 µM'),
  ('CC(=O)/C(=C\c1c(-c2ccccc2)[nH]c2ccccc12)S(=O)(=O)c1ccccc1', 'GI50', '1.7 µM'),
  ('COc1ccc2[nH]c(-c3ccccc3)c(C=C(C#N)C#N)c2c1', 'GI50', '3.8 µM'),
  ('CCOC(=O)C(=Cc1c(-c2ccccc2)[nH]c2ccccc12)C(=O)OCC', 'GI50', '5.8 µM');

---

test system: U-251; assay: Growth inhibition of human U251 cells after 48 hrs by sulforhodamine B assay; type: functional; settings: U-251, 48 h
The reader will find reported GI50 values listed item by item below.
value_type: GI50

INSERT INTO measurements (smiles_text, recorded_value) VALUES
  ('O=C(/C(=C\c1c(-c2ccccc2)[nH]c2ccccc12)S(=O)(=O)c1ccccc1)c1ccccc1', '8.6 µM'),
  ('N#CC(C#N)=Cc1c(-c2ccccc2)[nH]c2ccccc12', '1.2 µM'),
  ('CC(=O)/C(=C\c1c(-c2ccccc2)[nH]c2ccccc12)S(C)(=O)=O', '2.9 µM'),
  ('COC(=O)/C(=C\c1c(-c2ccccc2)[nH]c2ccccc12)S(C)(=O)=O', '3.6 µM'),
  ('COc1ccc(-c2[nH]c3ccccc3c2/C=C(\C#N)S(=O)(=O)c2ccccc2)cc1', '0.473 µM'),
  ('COc1ccc(-c2[nH]c3ccc(OC)cc3c2/C=C(\C#N)S(=O)(=O)c2ccccc2)cc1', '0.563 µM'),
  ('CCOC(=O)C(=Cc1c(-c2ccccc2)[nH]c2ccccc12)C(=O)OCC', '4.9 µM'),
  ('COC(=O)/C(=C\c1c(C)[nH]c2ccccc12)S(=O)(=O)c1ccccc1', '3.4 µM'),
  ('N#C/C(=C\c1c(-c2ccccc2)[nH]c2ccccc12)C(=O)c1ccccc1', '4.7 µM'),
  ('CC(=O)/C(=C\c1c(-c2ccccc2)[nH]c2ccccc12)S(=O)(=O)c1ccccc1', '1.2 µM');

---

tested on: SN12C; test: Growth inhibition of human SN12C cells after 48 hrs by sulforhodamine B assay; format: functional
The reader will find reported GI50 values listed item by item below.
value_type: GI50

INSERT INTO measurements (smiles_text, recorded_value) VALUES
  ('CC(=O)/C(=C\c1c(-c2ccccc2)[nH]c2ccccc12)S(=O)(=O)c1ccccc1', '1.9 µM'),
  ('CC(=O)/C(=C\c1c(-c2ccccc2)[nH]c2ccccc12)S(C)(=O)=O', '6.9 µM'),
  ('COC(=O)/C(=C\c1c(-c2ccccc2)[nH]c2ccccc12)S(C)(=O)=O', '3.1 µM'),
  ('COc1ccc(-c2[nH]c3ccc(OC)cc3c2/C=C(\C#N)S(=O)(=O)c2ccccc2)cc1', '2.3 µM');

---

The reader will find reported GI50 values listed item by item below.
system: SNB-19; experiment: Growth inhibition of human SNB19 cells after 48 hrs by sulforhodamine B assay; type: functional; details: SNB-19, 48 h
value_type: GI50

INSERT INTO measurements (smiles_text, value_type, recorded_value) VALUES
  ('COC(=O)/C(=C\c1c(C)[nH]c2ccccc12)S(=O)(=O)c1ccccc1', 'GI50', '7.6 µM'),
  ('COc1ccc2[nH]c(-c3ccccc3)c(/C=C(\C#N)S(=O)(=O)c3ccccc3)c2c1', 'GI50', '13.5 µM'),
  ('COc1ccc(-c2[nH]c3ccccc3c2C=C(C#N)C#N)cc1', 'GI50', '1.8 µM'),
  ('CCOC(=O)C(=Cc1c(-c2ccccc2)[nH]c2ccccc12)C(=O)OCC', 'GI50', '23.9 µM'),
  ('COc1ccc(-c2[nH]c3ccccc3c2/C=C(\C#N)S(=O)(=O)c2ccccc2)cc1', 'GI50', '0.863 µM'),
  ('COc1ccc(-c2[nH]c3ccc(OC)cc3c2C=C(C#N)C#N)cc1', 'GI50', '13.7 µM'),
  ('CC(=O)/C(=C\c1c(-c2ccccc2)[nH]c2ccccc12)S(=O)(=O)c1ccccc1', 'GI50', '6.1 µM'),
  ('COc1ccc2[nH]c(-c3ccccc3)c(C=C(C#N)C#N)c2c1', 'GI50', '6 µM'),
  ('N#C/C(=C\c1c(-c2ccccc2)[nH]c2ccccc12)S(=O)(=O)c1ccccc1', 'GI50', '8.3 µM'),
  ('N#C/C(=C\c1c(-c2ccccc2)[nH]c2ccccc12)C(=O)c1ccccc1', 'GI50', '16.8 µM');

---

system: U-251; assay: Growth inhibition of human U251 cells after 48 hrs by sulforhodamine B assay; assay type: functional; settings: U-251, 48 h
// returns Not met unless GI50 is strictly below 3000 nM, in which case Met

INSERT INTO measurements (smiles_text, category_label) VALUES
  ('COc1ccc(-c2[nH]c3ccccc3c2C=C(C#N)C#N)cc1', 'Met'),
  ('COc1ccc(-c2[nH]c3ccc(OC)cc3c2C=C(C#N)C#N)cc1', 'Met'),
  ('COc1ccc2[nH]c(-c3ccccc3)c(C=C(C#N)C#N)c2c1', 'Not met'),
  ('COc1ccc2[nH]c(-c3ccccc3)c(/C=C(\C#N)S(=O)(=O)c3ccccc3)c2c1', 'Not met'),
  ('N#C/C(=C\c1c(-c2ccccc2)[nH]c2ccccc12)S(=O)(=O)c1ccccc1', 'Met');

---

assay: Growth inhibition of human RXF393 cells after 48 hrs by sulforhodamine B assay; format: functional; details: RXF 393, 48 h
value_type: GI50 (nM)

INSERT INTO results (smiles_text, recorded_value) VALUES
  ('CC(=O)/C(=C\c1c(-c2ccccc2)[nH]c2ccccc12)S(=O)(=O)c1ccccc1', 1300),
  ('CC(=O)/C(=C\c1c(-c2ccccc2)[nH]c2ccccc12)S(C)(=O)=O', 2600),
  ('COc1ccc2[nH]c(-c3ccccc3)c(C=C(C#N)C#N)c2c1', 9800);

---

test system: K562; assay: Growth inhibition of human K562 cells after 48 hrs by sulforhodamine B assay; assay type: functional; details: K562, 48 h
The reader will find reported log10 GI50 values listed item by item below.
value_type: log10 GI50 (log10 of the value in nM)

INSERT INTO measurements (smiles_text, measured_on, value_type, recorded_value) VALUES
  ('CC(=O)/C(=C\c1c(-c2ccccc2)[nH]c2ccccc12)S(C)(=O)=O', 'K562', 'log10 GI50', 2.83),
  ('COc1ccc(-c2[nH]c3ccc(OC)cc3c2C=C(C#N)C#N)cc1', 'K562', 'log10 GI50', 2.54),
  ('CCOC(=O)C(=Cc1c(-c2ccccc2)[nH]c2ccccc12)C(=O)OCC', 'K562', 'log10 GI50', 3.56),
  ('COc1ccc2[nH]c(-c3ccccc3)c(C=C(C#N)C#N)c2c1', 'K562', 'log10 GI50', 3.32),
  ('N#C/C(=C\c1c(-c2ccccc2)[nH]c2ccccc12)S(=O)(=O)c1ccccc1', 'K562', 'log10 GI50', 2.54),
  ('CC(=O)/C(=C\c1c(-c2ccccc2)[nH]c2ccccc12)S(=O)(=O)c1ccccc1', 'K562', 'log10 GI50', 2.65);

---

The reader will find reported GI50 values listed item by item below.
tested on: SK-MEL-28; assay: Growth inhibition of human SK-MEL-28 cells after 48 hrs by sulforhodamine B assay; type: functional; conditions: SK-MEL-28, 48 h
value_type: GI50 (µM)

INSERT INTO measurements (smiles_text, measured_on, recorded_value) VALUES
  ('COc1ccc2[nH]c(-c3ccccc3)c(/C=C(\C#N)S(=O)(=O)c3ccccc3)c2c1', 'SK-MEL-28', 6.1),
  ('CC(=O)/C(=C\c1c(-c2ccccc2)[nH]c2ccccc12)S(C)(=O)=O', 'SK-MEL-28', 3.3),
  ('COc1ccc(-c2[nH]c3ccccc3c2/C=C(\C#N)S(=O)(=O)c2ccccc2)cc1', 'SK-MEL-28', 1.8);

---

system: 786-0; assay: Growth inhibition of human 786-0 cells after 48 hrs by sulforhodamine B assay; type: functional; details: 786-0, 48 h
The reader will find reported log10 GI50 values listed item by item below.
value_type: log10 GI50 (log10 of the value in µM)

INSERT INTO results (smiles_text, recorded_value) VALUES
  ('N#C/C(=C\c1c(-c2ccccc2)[nH]c2ccccc12)C(=O)c1ccccc1', 1.22),
  ('COc1ccc2[nH]c(-c3ccccc3)c(C=C(C#N)C#N)c2c1', 0.82),
  ('CCOC(=O)C(=Cc1c(-c2ccccc2)[nH]c2ccccc12)C(=O)OCC', 1.11),
  ('CC(=O)/C(=C\c1c(-c2ccccc2)[nH]c2ccccc12)S(C)(=O)=O', 0.54),
  ('COc1ccc2[nH]c(-c3ccccc3)c(/C=C(\C#N)S(=O)(=O)c3ccccc3)c2c1', 0.79),
  ('COc1ccc(-c2[nH]c3ccccc3c2/C=C(\C#N)S(=O)(=O)c2ccccc2)cc1', 0.08);
